Target: T1, BODIPY-β-annulus peptide (tomato bushy stunt virus, BODIPY-maleimide added by Michael addition to the thiol of the N-terminal Cys)
T1 construct: also called BODIPY-labelled β-annulus peptide; fluorescent-labelled β-annulus peptide; source: synthetic peptide (solid-phase Fmoc chemistry; labelled with BODIPY-maleimide; purified by reversed-phase HPLC)
T1 peptide: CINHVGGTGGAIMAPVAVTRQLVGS
Assay: fluorescence correlation spectroscopy (FCS); 0.1 μM BODIPY-β-annulus peptide with 0~200 μM β-annulus peptide in 10 mM Tris-HCl buffer (pH 7.0), sonicated 10 min, incubated 30 min, 25 °C; ratio of the slow component fitted to the Hill equation; apparent Kd
Details: both partners purified
pKd: −log10 of the molar value.
READOUT_KIND: pKd

[
  {
    "BINDER": "INHVGGTGGAIMAPVAVTRQLVGS (also called unmodified β-annulus peptide; source: synthetic peptide (solid-phase Fmoc chemistry, purified by reversed-phase HPLC)) [24-mer β-annulus peptide from tomato bushy stunt virus]",
    "OBSERVED": 4.34
  }
]
